assay: Metabolic stability in pooled human liver microsomes assessed as half-life at 1 uM preincubated with compound followed by NADPH addition and measured upto 45 mins by LC-MS/MS analysis; assay type: ADME, Microsome
Would you kindly list half-life at 1 µM for each of these molecules?
Quick reminder: number only, in min, skip the unit.

get_value(item= [2H]c1c([2H])c2c3c(c(Br)[nH]c3c1[2H])C[C@@H]1C2=C[C@@H](C(=O)N(CC)CC)CN1C , readout=half-life at 1 µM) returns 26.3

Summary for this molecule, [2H]C([2H])([2H])N1C[C@H](C(=O)N(C([2H])([2H])C([2H])([2H])[2H])C([2H])([2H])C([2H])([2H])[2H])C=C2c3cccc4[nH]c(Br)c(c34)C[C@H]21 : half-life at 1 µM is 35.7

Entry under test: CCN(CC)C(=O)[C@@H]1C=C2c3cccc4[nH]c(Br)c(c34)C[C@H]2N(C)C1 . Its half-life at 1 µM was 24.6

For reference, reported half-life at 1 µM for [2H]C([2H])([2H])C([2H])([2H])N(C(=O)[C@@H]1C=C2c3cccc4[nH]c(Br)c(c34)C[C@H]2N(C)C1)C([2H])([2H])C([2H])([2H])[2H] stands at 31.1

Documented half-life at 1 µM of [2H]C([2H])([2H])N1C[C@H](C(=O)N(CC)CC)C=C2c3cccc4[nH]c(Br)c(c34)C[C@H]21 : 28.1

According to the records, this molecule [2H]C([2H])([2H])C([2H])([2H])N(C(=O)[C@@H]1C=C2c3cccc4[nH]cc(c34)C[C@H]2N(C)C1)C([2H])([2H])C([2H])([2H])[2H] displays half-life at 1 µM of 80.8

For record [2H]c1[nH]c2c([2H])c([2H])c([2H])c3c2c1C[C@@H]1C3=C[C@@H](C(=O)N(CC)CC)CN1C the listed half-life at 1 µM is 82.8

Entry [2H]c1[nH]c2cccc3c2c1C[C@@H]1C3=C[C@@H](C(=O)N(CC)CC)CN1C , half-life at 1 µM reported as 77.7
